# TEST SUMMARY: cell viability in Huh7 cells, primary screen, cytotoxicity control for HCV replication inhibitor project, CellTiter-Glo luminescence, basal, 48 h (AID 1143);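 note: Huh7 hepatoma cells carrying a hepatitis C replication reporter with no stimulus; test concentration not given here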
# MEASUREMENT CONTEXT: Huh7 HCV replicon, higher = more signal, called active from +8 up or from −8 down
Calls of active or inactive are those of the source.
QUANTITY: z-score

Given item O=C1C[C@@H](O)[C@@H](O)[C@@H]2[C@@H]3C(=O)N(c4ccc(F)cc4F)C(=O)[C@@H]3CC[C@@H]12 , the value recorded as its z-score is 0.988 (inactive)

Value of z-score reported for the molecule CC(CCC(=O)OC[C@H]1O[C@H](C#Cc2ccccc2)C=C[C@@H]1Oc1ccc(C)cc1)=NOC[C@@H](O)COCc1ccco1 is -0.204 (inactive)

Given item COCCCNC(=O)[C@]1(CCC(=O)OC(C)(C)C)N=C(c2ccc(OCCCO)cc2)O[C@@H]1c1ccccc1N=[N+]=[N-] , the value recorded as its z-score is -1.41 (inactive)

Documented z-score of CN1C(=O)[C@@]2(CCC(=O)OC(C)(C)C)N=C(c3ccc(OCCCO)cc3)O[C@H]2c2ccccc21 : -4.68 (inactive)

Reported z-score for COC(=O)[C@@]1(Cc2ccc(F)cc2)[C@@H]2C(=CC(=O)[C@H]2CC(=O)C(=O)N(C)C)CN1C(=O)c1ccccc1 was -3.59 (inactive)

Documented z-score of C=CCC(OC(C)=O)[C@@H]1[C@@H](N(Cc2cc3ccccc3o2)C(=O)Cc2ccc(F)cc2)c2cc(OCCCO)ccc2N1C(=O)Cc1ccc(OC)cc1 (stereo not given in full) : -0.276 (inactive)

Just so you know, measured z-score for CCc1cccc(NC(=O)O[C@H]2[C@H](OC(=O)Nc3ccc4c(c3)OCO4)[C@@H](OC(=O)Nc3ccc4c(c3)OCO4)[C@@H](OC)O[C@@H]2CO)c1 came out at -3.35 (inactive)

Entry CC(C)[Si]1(C(C)C)O[C@@H](c2ccccc2)c2cc(C3CC3)nc(-c3ccccc3)c21 , z-score reported as 0.414 (inactive)

Entry CC(C)CON=C1C[C@@H](O)[C@@H](O)[C@@H]2[C@@H]3C(=O)N(C[C@@H]4CCCO4)C(=O)[C@@H]3CC[C@H]12 — recorded z-score = -1.36 (inactive)

Record O=C1[C@H]2[C@H]3[C@H](O)[C@H](O)CC(=NO[C@@H]4O[C@H](CO)[C@@H](O)[C@H](O)[C@H]4O)[C@H]3CC[C@H]2C(=O)N1C1CCCCC1 . Reported z-score: 0.582 (inactive)

Recorded result, C#C[C@@H]1Oc2ccccc2S(=O)(=O)N2CCC[C@H]12 , z-score: 0.299 (inactive)

Sample O=C(CS)NCCCCCNC(=O)[C@@H]1C[C@@H]2C(=O)N[C@@H](Cc3ccccc3)C(=O)N2[C@@H]1c1ccc(O)cc1 ; z-score observed: -0.0984 (inactive)

C[N+](C)(C)CCCCCCNC(=O)[C@@H]1C[C@@H]2C(=O)N3CCC[C@H]3C(=O)N2[C@@H]1c1cccc(OCCO)c1 yielded z-score of -0.345 (inactive)

Just so you know, measured z-score for O=C1C[C@@H](O)[C@@H](O)[C@@H]2[C@@H]3C(=O)N(Cc4ccc5c(c4)OCO5)C(=O)[C@@H]3CC[C@@H]12 came out at 0.136 (inactive)

So for O=C1[C@H]2[C@H]3[C@H](O)[C@H](O)CC(=NOCc4ccccc4)[C@@H]3CC[C@H]2C(=O)N1Cc1ccccc1 , the logged z-score turned out to be 0.0627 (inactive)
